Hi there, I'd appreciate the recorded viability for every entry that follows.
- assay.name: growth inhibitors of H69AR lung tumor, primary screen, human, duplicate replicates (AID 580);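 further: 100% = mean luminescence of untreated wells and 0% = no signal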
- stated.conditions: H69AR lung tumor cells viability, ATP luminescence, 72 h; at 10 µM; active compounds read low
Activity calls are given as the source filed them.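 How the source made its calls: active means viability at or under a set limit in both replicates, limit being median viability minus 3 SD (cut at about 48% in these data, passing the limit was not always enough); inconclusive means at or under the limit in just one replicate; inactive means at or above the limit in both replicates.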

Which measured viability value corresponds to CCOC(=O)CN1CC23C=CC(O2)C(C(=O)Nc2ccc(OC)cc2OC)C3C1=O (centres undefined) ?
98.9% (inactive)

Which measured viability value corresponds to O=C(c1ccccc1)c1ccc(N2CCOCC2)c(NC(=O)c2ccco2)c1 ?
87.3% (inactive)

Which measured viability value corresponds to CC(=O)CCc1c(C)[nH]c2ccccc2c1=O ?
93.2% (inactive)

Which measured viability value corresponds to CCc1nn2c(=O)cc(CSc3nc4sc5c(c4c(=O)n3C)CCCC5)nc2s1 ?
90% (inactive)

Which measured viability value corresponds to Cc1nc(SCC#N)c2c(C)c(C)sc2n1 ?
98.4% (inactive)

Which measured viability value corresponds to C=CCN1C(=O)C2(c3ccccc31)C1CCCC=C1C(C#N)=C(N)C2(C#N)C#N (centres undefined) ?
76.4% (inactive)

Which measured viability value corresponds to COc1cccc(Oc2ccc(N)cn2)c1 ?
88.1% (inactive)

Which measured viability value corresponds to Cc1c(Cl)cccc1N1C(=O)c2ccccc2C1=O ?
111% (inactive)

Which measured viability value corresponds to O=C(Cn1c(SCC(=O)N2CCCc3ccccc32)nc2ccccc21)N1CCCC1 ?
98.3% (inactive)

Which measured viability value corresponds to O=C(NC1CCCCC1)n1c(=O)oc2ccc(Cl)cc21 ?
94.2% (inactive)

Which measured viability value corresponds to CC(C)CC(c1nnnn1CC1CCCO1)N1CCN(Cc2ccc3c(c2)OCO3)CC1 (centres undefined) ?
96.7% (inactive)

Which measured viability value corresponds to COc1ccc(-c2ccc(Nc3ccc(S(=O)(=O)N4CCCC4)cc3)nn2)cc1OC ?
53.6% (inactive)

Which measured viability value corresponds to COc1ccccc1N1CCN(C(=O)C2CCCO2)CC1 (centres undefined) ?
97.5% (inactive)

Which measured viability value corresponds to O=S(=O)(NCc1ccccc1)c1ccc2c(c1)OCCO2 ?
76.8% (inactive)

Which measured viability value corresponds to C=C(C)c1cccc(C(C)(C)NC(=O)Nc2ncccn2)c1 ?
66.7% (inactive)

Which measured viability value corresponds to CCOc1ccc2nc(NC(=O)CSc3nnnn3C3CCCCC3)sc2c1 ?
63.5% (inactive)

Which measured viability value corresponds to CCSc1nnc(NC(=O)CSc2ncccn2)s1 ?
107% (inactive)

Which measured viability value corresponds to CCCCn1nnnc1SCC(=O)N1CCN(C(=O)c2ccco2)CC1 ?
93.6% (inactive)

Which measured viability value corresponds to CCC(Oc1ccc2ccccc2c1)C(=O)O (centres undefined) ?
80.1% (inactive)

Which measured viability value corresponds to O=C(COc1ccc(S(=O)(=O)NC2CCCCC2)cc1Cl)NCC1CCCO1 (centres undefined) ?
89.4% (inactive)

Which measured viability value corresponds to COc1ccc(C(=O)Cn2c(N3CCCCC3)nc3c2c(=O)n(C)c(=O)n3C)cc1OC ?
92.7% (inactive)

Which measured viability value corresponds to COc1ccccc1CC1(C)NC(=O)N(CC(=O)Nc2cc(C)on2)C1=O (centres undefined) ?
92.7% (inactive)

Which measured viability value corresponds to Cc1nc2ccc(NC(=O)N3CCOCC3)cc2s1 ?
89.8% (inactive)

Which measured viability value corresponds to CCOC(=O)c1ccccc1NC(=O)CSc1nnc(COc2ccccc2C)n1C ?
78.7% (inactive)

Which measured viability value corresponds to Cc1ccc(S(=O)(=O)Cc2ccc(C(=O)NCc3ccc4c(c3)OCO4)o2)cc1 ?
94.1% (inactive)

Which measured viability value corresponds to C/C(=C(\C#N)C(=O)NCCCN1CCOCC1)N(C)C ?
102% (inactive)

Which measured viability value corresponds to O=C(OCC(=O)N1CCC(Cc2ccccc2)CC1)c1ccc[nH]c1=O ?
92.6% (inactive)

Which measured viability value corresponds to Cc1nn(S(=O)(=O)N2CCCCC2)c(C)c1Br ?
102% (inactive)

Which measured viability value corresponds to CC(=O)N1CCC2(CC1)CC(=O)c1cc(OCC(=O)NCc3ccco3)ccc1O2 ?
83.5% (inactive)

Which measured viability value corresponds to CC(C)(C)n1ncc2c(=O)n(CC(=O)NCCc3ccccc3)cnc21 ?
90.9% (inactive)

Which measured viability value corresponds to O=C(NCc1cccs1)C1CCN(S(=O)(=O)c2cccs2)CC1 ?
102% (inactive)

Which measured viability value corresponds to Cc1ccccc1NC(=O)C1Cc2ccccc2C(=O)O1 (centres undefined) ?
98.7% (inactive)

Which measured viability value corresponds to CCc1ccc(NS(=O)(=O)c2cccs2)cc1 ?
96% (inactive)

Which measured viability value corresponds to COC(=O)c1[nH]c2ccc(F)cc2c1NS(=O)(=O)c1ccc(OC)cc1OC ?
84.4% (inactive)
